# IP listing for each entry below
# Organism: Rattus norvegicus
# assay-explanation: Open TG-GATES - Regimen: Daily Repeat
# Format: toxicity, organism-based, Sprague-Dawley
# Design: regimen Daily Repeat, gender Male, age 6 weeks
# experimental-setup: in vivo, po, 0 mg/kg, […], tissue Plasma, route gavage, dose level Control, time 14 day
A number alone suffices; assume mg/dL.

Examples from the recorded data:
O=C1CN(/N=C/c2ccc([N+](=O)[O-])o2)C(=O)N1: 6.7
OCCN1CCN(CCCN2c3ccccc3Sc3ccc(C(F)(F)F)cc32)CC1: 8.5
C[C@H]1O[C@H](O[C@H]2[C@H](O)[C@@H](O)[C@@H](O[C@H]3[C@H](O)[C@@H](O)C(O)O[C@@H]3CO)O[C@@H]2CO)[C@H](O)[C@@H](O)[C@@H]1N[C@H]1C=C(CO)[C@@H](O)[C@H](O)[C@H]1O (some centres undefined): 6.4
C=C(C)[C@H]1Cc2c(ccc3c2O[C@@H]2COc4cc(OC)c(OC)cc4[C@@H]2C3=O)O1: 6.9
CCOC(=O)C(C)(C)Oc1ccc(Cl)cc1 [CLOFIBRATE]: 7

Give a short answer stating reported IP for Cn1cc[nH]c1=S .
7

Give a short answer stating reported IP for O=[N+]([O-])c1ccc(O)c([N+](=O)[O-])c1 .
7.4

Give a short answer stating reported IP for Cc1cccc(C)c1OCC(C)N (centres undefined) .
7.1

Give a short answer stating reported IP for C[C@H]1C(=O)O[C@@H]2CCN3CC=C(COC(=O)[C@](C)(O)[C@]1(C)O)[C@H]23 .
6.6

###

# PT listing for each entry below
# Species: Rattus norvegicus
# assay-explanation: Open TG-GATES - Regimen: Daily Repeat
# Type: toxicity, organism-based, Sprague-Dawley
# Set-up: regimen Daily Repeat, gender Male, age 6 weeks
# experimental-setup: in vivo, po, 0 mg/kg, […], tissue Blood, route gavage, dose level Control, time 7 day
A number alone suffices; assume s.

Examples from the recorded data:
OCCN1CCN(CCCN2c3ccccc3Sc3ccc(C(F)(F)F)cc32)CC1: 11.9
O=C1CN(/N=C/c2ccc([N+](=O)[O-])o2)C(=O)N1: 12.5
O=[N+]([O-])c1ccc(O)c([N+](=O)[O-])c1: 11.6

Give a short answer stating reported PT for CCOC(=O)C(C)(C)Oc1ccc(Cl)cc1 [CLOFIBRATE] .
11.8

Give a short answer stating reported PT for C[C@H]1C(=O)O[C@@H]2CCN3CC=C(COC(=O)[C@](C)(O)[C@]1(C)O)[C@H]23 .
16.6

Give a short answer stating reported PT for Cn1cc[nH]c1=S .
15.9

Give a short answer stating reported PT for Cc1cccc(C)c1OCC(C)N (centres undefined) .
15.9

Give a short answer stating reported PT for C=C(C)[C@H]1Cc2c(ccc3c2O[C@@H]2COc4cc(OC)c(OC)cc4[C@@H]2C3=O)O1 .
11.6

Give a short answer stating reported PT for C[C@H]1O[C@H](O[C@H]2[C@H](O)[C@@H](O)[C@@H](O[C@H]3[C@H](O)[C@@H](O)C(O)O[C@@H]3CO)O[C@@H]2CO)[C@H](O)[C@@H](O)[C@@H]1N[C@H]1C=C(CO)[C@@H](O)[C@H](O)[C@H]1O (some centres undefined) .
12.8
